Measured % displacement at 10 nM accompanies every entry in the list below.
- tgt: human cloned somatostatin receptor 4 (human) (UniProt P31391)
- Sequence (P31391 whole entry): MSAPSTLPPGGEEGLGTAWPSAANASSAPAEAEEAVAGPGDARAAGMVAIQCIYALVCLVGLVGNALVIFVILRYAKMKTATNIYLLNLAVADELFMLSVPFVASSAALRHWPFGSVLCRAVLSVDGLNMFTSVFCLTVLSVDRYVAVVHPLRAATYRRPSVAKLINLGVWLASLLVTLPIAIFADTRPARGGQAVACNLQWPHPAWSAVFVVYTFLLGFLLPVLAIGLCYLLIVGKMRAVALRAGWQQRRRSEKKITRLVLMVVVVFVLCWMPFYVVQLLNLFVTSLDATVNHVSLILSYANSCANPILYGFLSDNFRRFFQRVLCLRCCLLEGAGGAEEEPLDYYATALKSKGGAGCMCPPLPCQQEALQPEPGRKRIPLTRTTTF
- test_summary: 125I-Tyr11-SRIF-14 displacement
*1 amine or outer side, *2 acyl side, *3 side chain or, on linkers, in order; H or OH if unused. Bridges are numbered along the chain shown (N, C = ends). [ ]: non-standard residue; d: D form. The star is where a group is joined. DOTA = O=C(O)CN1CCN(CC(=O)O)CCN(CC(=O)*)CCN(CC(=O)O)CC1; N(2-mercaptoethyl)Gly = O=C(CN(CCS[*:3])[*:1])[*:2]; 4Amb = NCc1ccc(C(=O)O)cc1; Orn = NCCC[C@H](N)C(=O)O
experimental_endpoint: % displacement at 10 nM (%)

>>> recorded_measurement("H-XRCF[dW]KTY[N(2-mercaptoethyl)Gly]-NH2 (disulfide 3-9; not fully specified (residue 1); printed as H-Phe1-Arg2-Cys3-Phe4-D-Trp5-Lys6-Thr7-Tyr8-NTEG9-NH2 (cyclo 3-9)) [SEQ ID NO: 26]")
0
>>> recorded_measurement("{DOTA}-G[dF]RCF[dW]KTF[N(2-mercaptoethyl)Gly]-NH2 (disulfide 4-10; SMILES C[C@@H](O)[C@@H]1NC(=O)[C@H](CCCCN)NC(=O)[C@@H](Cc2c[nH]c3ccccc23)NC(=O)[C@H](Cc2ccccc2)NC(=O)[C@@H](NC(=O)[C@H](CCCNC(=N)N)NC(=O)[C@@H](Cc2ccccc2)NC(=O)CNC(=O)CN2CCN(CC(=O)O)CCN(CC(=O)O)CCN(CC(=O)O)CC2)CSSCCN(CC(N)=O)C(=O)[C@H](Cc2ccccc2)NC1=O) [SEQ ID NO: 11]")
0
>>> recorded_measurement("{DOTA-4Amb}-[dF]RCF[dW]KTF[N(2-mercaptoethyl)Gly]-NH2 (disulfide 3-9) [SEQ ID NO: 18]")
8
>>> recorded_measurement("{DOTA}-[dF]EE[Orn]CF[dW]KTF[N(2-mercaptoethyl)Gly]-NH2 (disulfide 5-11; SMILES C[C@@H](O)[C@@H]1NC(=O)[C@H](CCCCN)NC(=O)[C@@H](Cc2c[nH]c3ccccc23)NC(=O)[C@H](Cc2ccccc2)NC(=O)[C@@H](NC(=O)[C@H](CCCN)NC(=O)[C@H](CCC(=O)O)NC(=O)[C@H](CCC(=O)O)NC(=O)[C@@H](Cc2ccccc2)NC(=O)CN2CCN(CC(=O)O)CCN(CC(=O)O)CCN(CC(=O)O)CC2)CSSCCN(CC(N)=O)C(=O)[C@H](Cc2ccccc2)NC1=O) [SEQ ID NO: 22]")
3
>>> recorded_measurement("{DOTA}-[dF]RCY[dW]KTF[N(2-mercaptoethyl)Gly]-NH2 (disulfide 3-9; SMILES C[C@@H](O)[C@@H]1NC(=O)[C@H](CCCCN)NC(=O)[C@@H](Cc2c[nH]c3ccccc23)NC(=O)[C@H](Cc2ccc(O)cc2)NC(=O)[C@@H](NC(=O)[C@H](CCCNC(=N)N)NC(=O)[C@@H](Cc2ccccc2)NC(=O)CN2CCN(CC(=O)O)CCN(CC(=O)O)CCN(CC(=O)O)CC2)CSSCCN(CC(N)=O)C(=O)[C@H](Cc2ccccc2)NC1=O) [SEQ ID NO: 25]")
8
